Test system: SR
Experiment: NCI tumour cell line growth inhibition, 48 h
Active and inactive are the calls of the source. Cut-off read from the data, not from the text of the source: active = GI50 up to about 1.1 µM and inactive = higher.
Exercise: for every item that follows, state its recorded GI50.

- CN(C(=O)c1cc2c(s1)sc1c(=O)n(C)c3ccccc3c12)c1ccccc1: 1.93 µM (inactive)
- COc1cc2c(cc1OC)CC(=O)Nc1cc(OC)c(OC)cc1CC2: 5.74 µM (inactive)
- O=c1c2cccc3cccc(c4oc5c6cccc7cccc(c(=O)c5c14)c76)c32: 7.66 µM (inactive)
- NC(=O)C(=CNC(=S)Nc1ccc(S(=O)(=O)Nc2ccccn2)cc1)C(N)=O: 41.5 µM (inactive)

Each compound below has a reported value. Please supply its GI50.
1. C/C(=N\NC(N)=O)C(CN1CCCCC1)C(c1ccccc1)c1c(O)c2ccccc2oc1=O (centres undefined)
2. CNc1nc2n(CCO)c(-c3ccccc3)c(-c3ccccc3)nc-2c(=O)n1

1: > 100 µM (inactive); 2: > 50 µM (inactive)
